The values you see were collected from ChEMBL document CHEMBL1151064.

# experimental_system: Prostaglandin G/H synthase 1 (Homo sapiens, UniProt P23219)
# Sequence (P23219 whole entry): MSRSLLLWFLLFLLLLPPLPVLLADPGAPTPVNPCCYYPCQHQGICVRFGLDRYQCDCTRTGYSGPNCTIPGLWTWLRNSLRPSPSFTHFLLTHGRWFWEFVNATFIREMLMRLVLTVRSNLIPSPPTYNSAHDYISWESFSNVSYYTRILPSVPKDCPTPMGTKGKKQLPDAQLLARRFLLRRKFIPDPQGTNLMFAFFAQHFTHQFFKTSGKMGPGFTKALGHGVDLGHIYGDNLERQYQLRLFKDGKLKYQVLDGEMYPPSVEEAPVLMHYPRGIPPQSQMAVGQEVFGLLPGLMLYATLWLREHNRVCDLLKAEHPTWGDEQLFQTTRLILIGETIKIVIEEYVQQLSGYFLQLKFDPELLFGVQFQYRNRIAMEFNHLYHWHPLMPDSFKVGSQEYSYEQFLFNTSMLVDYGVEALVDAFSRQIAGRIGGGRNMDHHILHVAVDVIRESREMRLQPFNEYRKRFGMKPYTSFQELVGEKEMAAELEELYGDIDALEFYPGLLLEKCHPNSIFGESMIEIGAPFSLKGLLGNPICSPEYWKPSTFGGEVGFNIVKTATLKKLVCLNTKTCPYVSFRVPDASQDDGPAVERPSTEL
quantity_name: IC50 (µM)
Form entry: value (µM) — number only.

Record request: IC50 value, item COc1cc2c(cc1F)-c1c(c(C(F)(F)F)nn1-c1ccc(S(N)(=O)=O)cc1)SC2
2.73

Another: Cc1ccc2c(c1)CSc1c(C(F)(F)F)nn(-c3ccc(S(N)(=O)=O)cc3)c1-2
0.79

Another: NS(=O)(=O)c1ccc(-n2nc(C(F)(F)F)c3c2-c2cc(F)c(F)cc2CS3)cc1
2.67

Another: NS(=O)(=O)c1ccc(-n2nc(C(F)(F)F)c3c2-c2ccc(F)cc2CS3)cc1
0.27

* * *

Heads up, these molecules all have IC50 values measured for Prostaglandin G/H synthase 2 (Homo sapiens).
I'd appreciate it if you wrote the number followed by its unit.

Find IC50 (Prostaglandin G/H synthase 2 (Homo sapiens)) for the entry NS(=O)(=O)c1ccc(-n2nc(C(F)(F)F)c3c2-c2cc(F)ccc2CS3)cc1
21 nM

Another: COc1cc2c(cc1F)-c1c(c(C(F)(F)F)nn1-c1ccc(S(N)(=O)=O)cc1)[S+]([O-])C2 (stereo not drawn)
1500 nM

Another: NS(=O)(=O)c1ccc(-n2nc(C(F)(F)F)c3c2-c2cc(F)c(F)cc2CS3)cc1
6 nM

Another: NS(=O)(=O)c1ccc(-n2nc(C(F)(F)F)c3c2-c2ccccc2CS3)cc1
20 nM

Another: NS(=O)(=O)c1ccc(-n2nc(C(F)(F)F)c3c2-c2ccccc2OC3)cc1
1330 nM

Another: N#Cc1nn(-c2ccc(S(N)(=O)=O)cc2)c2c1SCc1cc(F)ccc1-2
140 nM

Another: Cc1cc2c(cc1F)-c1c(c(C(F)(F)F)nn1-c1ccc(S(N)(=O)=O)cc1)SC2
16 nM

Another: COc1cc2c(cc1F)-c1c(c(C(F)(F)F)nn1-c1ccc(S(N)(=O)=O)cc1)SC2
9 nM

* * *

# experimental_system: Prostaglandin G/H synthase 1 (Homo sapiens)
# procedure_text: Relative activity against COX-1/COX-2
Can you tell me Ratio for the items I'm about to list?

Record request: Ratio value, item Cc1cc2c(cc1F)-c1c(c(C(F)(F)F)nn1-c1ccc(S(N)(=O)=O)cc1)SC2
693

Another: Cc1ccc2c(c1)CSc1c(C(F)(F)F)nn(-c3ccc(S(N)(=O)=O)cc3)c1-2
36

Another: NS(=O)(=O)c1ccc(-n2nc(C(F)(F)F)c3c2-c2ccccc2CS3)cc1
20

Another: N#Cc1nn(-c2ccc(S(N)(=O)=O)cc2)c2c1SCc1cc(F)ccc1-2
5

* * *

# experimental_system: Prostaglandin G/H synthase 1 (Homo sapiens, UniProt P23219)
# procedure_text: Relative activity against COX-1/COX-2
Can you tell me Ratio for the items I'm about to list?
Just the number, please.

Record request: Ratio value, item NS(=O)(=O)c1ccc(-n2nc(C(F)(F)F)c3c2-c2cc(F)c(F)cc2CS3)cc1
381

Another: NS(=O)(=O)c1ccc(-n2nc(C(F)(F)F)c3c2-c2ccccc2OC3)cc1
5.3

Another: NS(=O)(=O)c1ccc(-n2nc(C(F)(F)F)c3c2-c2cc(F)ccc2CS3)cc1
297

Another: NS(=O)(=O)c1ccc(-n2nc(C(F)(F)F)c3c2-c2ccc(F)cc2CS3)cc1
7

Another: COc1cc2c(cc1F)-c1c(c(C(F)(F)F)nn1-c1ccc(S(N)(=O)=O)cc1)SC2
303

Another: COc1ccc2c(c1)CSc1c(C(F)(F)F)nn(-c3ccc(S(N)(=O)=O)cc3)c1-2
23

* * *

# experimental_system: Prostaglandin G/H synthase 1 (Homo sapiens, UniProt P23219)
# procedure_text: Relative activity against COX-1/COX-2
quantity_name: Ratio

Find Ratio (Prostaglandin G/H synthase 1 (Homo sapiens, UniProt P23219)) for the entry COc1cc2c(cc1F)-c1c(c(C(F)(F)F)nn1-c1ccc(S(N)(=O)=O)cc1)[S+]([O-])C2 (stereo not drawn)
> 67

Another: COc1cc2c(cc1F)-c1c(c(C(F)(F)F)nn1-c1ccc(S(C)(=O)=O)cc1)SC2
> 1330

Another: COc1cc2c(cc1F)-c1c(c(C(F)F)nn1-c1ccc(S(N)(=O)=O)cc1)SC2
> 3120
